# Test system: CEM cells HIV-1 protection, formazan growth assay
# procedure_text: NCI AIDS Antiviral Assay;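 active = compounds giving half or more protection of infected cells from virus-caused growth loss, again on retest; inactive = the rest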
Would you mind answering with one of these outcomes? true for active, false for inactive

Please review the entries below; each comes with its answer.
COc1ccc(C2=NNc3n[nH]c(=S)n3N2)cc1OC | false
COC(=O)CCC1(C)C2CCC1(C)/C(=N/O)C2 (stereo unspecified) | false
CC(=O)N1CC(=O)N2C(=O)/C(=C/c3ccc(Cl)cc3)N=C12 | false
CC(=O)OCCCOCn1cc(C)c(=O)[nH]c1=O | false
CCOC(=O)Cc1ccc(Nc2nc3cc(C(F)(F)F)ccc3nc2C(=O)OCC)cc1 | false

Each compound tested received a call. Report the one for CCOP(=O)(Nc1ccccc1P(=O)(OCC)OCC)OCC .
false

Each compound tested received a call. Report the one for CCCCCCCCCCC(c1ccc(O)c(C(=O)O)c1)c1ccc(O)c(C(=O)O)c1 .
true

Each compound tested received a call. Report the one for O=C(CCc1nc(=S)[nH][nH]1)Nc1cc(Cl)ccc1Cl .
false

Each compound tested received a call. Report the one for Cn1c(=O)[nH]c2nncnc2c1=O .
false

Each compound tested received a call. Report the one for CC1(C)C=C(S(=O)(=O)c2ccccc2)Oc2ccccc2O1 .
false

Each compound tested received a call. Report the one for C=CC(=O)N1C/C(=C\c2ccc(Cl)c(Cl)c2)C(=O)/C(=C/c2ccc(Cl)c(Cl)c2)C1 .
false
